Square brackets hold non-standard residues; d marks the D form. Peptide text beside a SMILES is read from it. * marks the point of attachment. Hydrocinnamoyl = O=C(CCc1ccccc1)*; PhAc = O=C(Cc1ccccc1)*; Bz = O=C(c1ccccc1)*
READOUT_LABEL: melting point

COC(=O)[C@@H](Cc1ccccc1)NC(=O)[C@H](Cc1c[nH]c2ccccc12)NC(=O)c1ccccc1 [Compound 3] (Bz-Trp-[dF]-OMe)	174 to 176 °C
O=C(N[C@@H](Cc1c[nH]c2ccccc12)C(=O)N[C@@H](CO)Cc1ccccc1)c1ccccc1 [Compound 13b]	120 to 122 °C

### Prompt What value of melting point has been reported for the following compound? COC(=O)[C@@H](Cc1ccccc1)NC(=O)[C@H](Cc1c[nH]c2ccccc12)NC(=O)c1ccc(OC)cc1
### Response 151 to 153 °C

### Prompt Please answer likewise for COC(=O)[C@@H](Cc1ccccc1)NC(=O)[C@H](Cc1c[nH]c2ccccc12)NC(=O)Cc1ccccc1 [Compound 8] (PhAc-Trp-[dF]-OMe)
### Response 182 to 184 °C

### Prompt COC(=O)[C@@H](Cc1ccccc1)NC(=O)[C@H](Cc1c[nH]c2ccccc12)NC(=O)c1ccc(F)cc1 ?
### Response 191 to 193 °C

### Prompt For O=C(N[C@@H](Cc1c[nH]c2ccccc12)C(=O)N[C@@H](CO)Cc1ccccc1)c1ccccc1 [Compound 13a] then?
### Response 151 to 153 °C

### Prompt Next compound up: COC(=O)[C@@H](Cc1ccccc1)NC(=O)[C@H](Cc1c[nH]c2ccccc12)NC(=O)CCc1ccccc1 [Compound 9] (Hydrocinnamoyl-Trp-[dF]-OMe)
### Response 159 to 161 °C

### Prompt Record: COC(=O)[C@@H](Cc1ccccc1)NC(=O)[C@H](Cc1c[nH]c2ccccc12)NC(=O)c1ccc(C)cc1
### Response 169 to 171 °C

### Prompt Could you do the same for COC(=O)[C@@H](Cc1ccccc1)NC(=O)[C@H](Cc1c[nH]c2ccccc12)NC(=O)c1ccc(Cl)cc1 , please?
### Response 191 to 193 °C

The measurements presented in this section are drawn from patent US9593144B2.
